# targetUnderTest: Folate receptor-alpha (FOLR1) (human) (UniProt P15328)
# Sequence (P15328 25-234): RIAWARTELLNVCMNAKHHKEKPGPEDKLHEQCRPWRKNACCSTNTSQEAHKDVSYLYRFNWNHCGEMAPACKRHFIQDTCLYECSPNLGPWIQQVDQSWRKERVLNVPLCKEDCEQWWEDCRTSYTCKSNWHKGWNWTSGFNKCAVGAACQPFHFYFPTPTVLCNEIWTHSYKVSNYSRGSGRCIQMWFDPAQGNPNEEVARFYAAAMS
# measurementNotes: summary table; cell binding through the folate moiety
Let's look at some binders and their measured FRα binding affinity.
measuredEndpoint: FRα binding affinity (nM)

binder	numericReadout
Fab1-HK129-5KPEG-Folate (Fab, V domains shown, pAF at HK129 (Kabat) conjugated to a bifunctional linker carrying folate and a linear 5K PEG (oxime), From E. coli; also called Fab1-5KPEG-Folate) VH: EVQLVESGGGLVQPGGSLRLSCAASGFTFNTYAMNWVRQAPGKGLEWVARIRSKYNNYATYYADSVKDRFTISRDDSKNILYLQMNSLKTEDTAVYYCVRHGNFGNSYVSWFAYWGQGTLVTVSS VL: QAVVTQEPSLTVSPGGTVTLTCRSSTGAVTTSNYANWVQQKPGQAPRGLIGGTNKRAPGTPARFSGSLLGGKAALTLSGAQPEDEAEYYCALWYSNLWVFGGGTKLTVLG	129
Fab1-HK129-20KPEG-Folate (Fab, V domains shown, pAF at HK129 (Kabat) conjugated to a bifunctional linker carrying folate and a linear 20K PEG (oxime), From E. coli) VH: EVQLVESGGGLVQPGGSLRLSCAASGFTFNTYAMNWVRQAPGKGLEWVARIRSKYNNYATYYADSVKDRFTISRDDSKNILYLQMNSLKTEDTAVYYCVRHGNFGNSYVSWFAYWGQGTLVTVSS VL: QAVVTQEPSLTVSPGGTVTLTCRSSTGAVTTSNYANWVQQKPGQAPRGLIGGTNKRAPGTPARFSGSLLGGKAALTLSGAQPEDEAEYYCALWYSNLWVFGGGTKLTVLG	310
Fab1-HK129-LL157-BiFolate (Fab, V domains shown, pAF at LL157 (Kabat) conjugated to folate (oxime); pAF at HK129 (Kabat) conjugated to folate (oxime), From E. coli; carries two folates) VH: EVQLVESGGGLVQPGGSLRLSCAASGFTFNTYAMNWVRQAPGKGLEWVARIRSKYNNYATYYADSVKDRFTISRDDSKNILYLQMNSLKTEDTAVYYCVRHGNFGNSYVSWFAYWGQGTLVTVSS VL: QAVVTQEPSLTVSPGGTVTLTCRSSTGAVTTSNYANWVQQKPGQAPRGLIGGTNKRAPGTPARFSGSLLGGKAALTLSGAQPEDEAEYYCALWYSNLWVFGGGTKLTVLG	19.8
Fab1-HK129-Folate (Fab, V domains shown, pAF at HK129 (Kabat) conjugated to folate (oxime), From E. coli; also called Folate lead; parent control) VH: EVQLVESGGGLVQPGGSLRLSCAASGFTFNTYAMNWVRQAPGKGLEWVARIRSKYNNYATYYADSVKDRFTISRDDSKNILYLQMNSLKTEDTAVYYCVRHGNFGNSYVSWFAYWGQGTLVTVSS VL: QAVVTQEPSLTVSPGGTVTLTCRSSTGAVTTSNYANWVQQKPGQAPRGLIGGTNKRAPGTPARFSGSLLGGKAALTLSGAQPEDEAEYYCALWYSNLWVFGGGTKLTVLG	59.6
